Attribution: patent US8563742B2

Assign EC50 to each entry below.
- measurement.target: human MC-4R (Homo sapiens, UniProt P32245)
- Construct: expressed in transfected cells
- Sequence (P32245 whole entry): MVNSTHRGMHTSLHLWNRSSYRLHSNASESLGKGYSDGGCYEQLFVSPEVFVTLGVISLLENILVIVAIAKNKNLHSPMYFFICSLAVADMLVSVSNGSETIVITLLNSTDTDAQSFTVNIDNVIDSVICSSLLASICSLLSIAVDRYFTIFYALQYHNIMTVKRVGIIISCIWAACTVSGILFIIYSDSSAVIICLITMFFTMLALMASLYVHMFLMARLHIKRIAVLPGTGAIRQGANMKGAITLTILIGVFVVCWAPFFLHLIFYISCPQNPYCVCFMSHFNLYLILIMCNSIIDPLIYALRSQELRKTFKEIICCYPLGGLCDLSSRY
- protocol.details: Biological Assay: inhibition of AgRP functional interaction with MC-4R in presence of αMSH (cAMP production)
- Assay type: cell-based
- reported.conditions: HEK293 cells expressing human MC-4R, AgRP83-132 and αMSH present; read-out: Average EC50 (nM) in Biological Assay

compound: Cc1ccc(CN(CCC(=O)[O-])c2nc(C3(C)CCC(C)CC3)cs2)s1.[Na+] (stereo not shown) [Example 46]
measurement.target: human MC-4R (Homo sapiens, UniProt P32245)
EC50: 76 nM

Below is a list of compounds. For each, state its recorded EC50.
1. CCc1ccc(CN(CCC(=O)O)c2nc(C3(CC(C)C)CCCC3)cs2)s1 [Example 43]
2. CCc1ccc(CN(CCC(=O)O)c2nc(CC3CCCCC3)cs2)s1 [Example 3]
3. Cc1ccc(CN(CCC(=O)[O-])c2nc([C@H]3CC[C@H](C(C)(C)C)CC3)cs2)s1.[Na+] [Example 7]

173 nM
246 nM
159 nM

###

For each of the molecules below, state its Stability in Liver Microsomes (% remaining after 1 hour incubation) Human.
- protocol.details: Stability in Liver Microsomes (human)
- Type: in vitro ADME
- reported.conditions: 1 μM, 0.5 mg protein/mL, NADPH, 60 minutes, 37° C., pH 7.4
Numbers only, in %.

molecule: Cc1ccc(CN(CCC(=O)O)c2nc(C3CCC(C)(C)CC3)cs2)s1 [Example 55]
unit.spec: %
observed.measurement: 49

molecule: CCc1ccc(CN(CCC(=O)[O-])c2nc(-c3ccc(N4CCCC4)cc3)cs2)s1.[Na+] [Reference Compound F, reference compound]
unit.spec: %
observed.measurement: 40

molecule: Cc1ccc(CN(CCC(=O)[O-])c2nc([C@H]3CC[C@H](C(C)C)CC3)cs2)s1.[Na+] [Example 9]
unit.spec: %
observed.measurement: 82

molecule: CC(C)(C)[C@H]1CC[C@H](c2csc(N(CCC(=O)O)Cc3cccs3)n2)CC1 [Reference Compound D, reference compound]
unit.spec: %
observed.measurement: 51

molecule: CCCC1CCC(c2csc(N(CCC(=O)O)Cc3ccc(C)s3)n2)CC1 (stereo not drawn) [Example 21]
unit.spec: %
observed.measurement: 84

molecule: CCc1ccc(CN(CCC(=O)[O-])c2nc([C@H]3CC[C@H](C(C)(C)C)CC3)cs2)s1.[Na+] [Example 8]
unit.spec: %
observed.measurement: 93

molecule: Cc1cc(CN(CCC(=O)O)c2nc(C3CCC(C(C)C)CC3)cs2)c(C)s1 (stereo not drawn) [Example 26]
unit.spec: %
observed.measurement: 79

molecule: Cc1cc(CN(CCC(=O)[O-])c2nc(C3CCC(c4ccccc4)CC3)cs2)c(C)s1.[Na+] (stereo not drawn) [Example 40]
unit.spec: %
observed.measurement: 61

Parameters: items (list). Returns: Stability in Liver Microsomes (% remaining after 1 hour incubation) Human for each item.
1. Cc1ccc(CN(CCC(=O)[O-])c2nc(C3CCC(C4CCCCC4)CC3)cs2)s1.[Na+] (stereo not drawn) [Example 60]
2. COC1CCC(c2csc(N(CCC(=O)O)Cc3ccc(C)s3)n2)CC1 (stereo not drawn) [Example 31]
3. Cc1ccc(CN(CCC(=O)O)c2nc(C3CCC(F)(F)CC3)cs2)s1 [Example 23]

1. 92
2. 83
3. 71

Below are 4 molecules. Give each one its Stability in Liver Microsomes (% remaining after 1 hour incubation) Human.
1. O=C([O-])CCN(Cc1cccs1)c1nc(-c2ccc(-c3ccccc3)cc2)cs1.[Na+] [Reference Compound B, reference compound]
2. Cc1cc(CN(CCC(=O)O)c2nc(C3CCC(C(C)(C)C)CC3)cs2)c(C)s1 (stereo not drawn) [Example 25]
3. Cc1ccc(CN(CCC(=O)[O-])c2nc([C@H]3CC[C@H](C(C)(C)C)CC3)cs2)s1.[Na+] [Example 7]
4. O=C([O-])CCN(Cc1cccs1)c1nc(C2CCC(c3ccccc3)CC2)cs1.[Na+] (stereo not drawn) [Reference Compound E, reference compound]

1. 82
2. 99
3. 78
4. 60

###

- protocol.details: Stability in Liver Microsomes (human)
- Assay type: in vitro ADME
- reported.conditions: 1 μM, 0.5 mg protein/mL, NADPH, 60 minutes, 37° C., pH 7.4
endpoint.label: Stability in Liver Microsomes (% remaining after 1 hour incubation) Human (%)
Answers are plain numbers, in %.

Answered examples (3):
compound: Cc1ccc(CN(CCC(=O)[O-])c2nc(C3CCC(c4ccc(F)cc4)CC3)cs2)s1.[Na+] (stereo not shown)
observed.measurement: 68

compound: CCC1CCC(c2csc(N(CCC(=O)O)Cc3ccc(C)s3)n2)CC1 (stereo not shown)
observed.measurement: 43

compound: Cc1ccc(CN(CCC(=O)O)c2nc([C@H]3CC[C@H](c4ccccc4)CC3)cs2)s1
observed.measurement: 71

Now turn to the next compound.
Would you mind telling me what Stability in Liver Microsomes (% remaining after 1 hour incubation) Human value was observed for CC(C)c1ccc(-c2csc(N(CCC(=O)[O-])Cc3cccs3)n2)cc1.[Na+] [Reference Compound A, reference compound] ?
40

###

- measurement.target: human MC-4R (Homo sapiens, UniProt P32245)
- Construct: expressed in transfected cells
- protocol.details: Biological Assay: inhibition of AgRP functional interaction with MC-4R in presence of αMSH (cAMP production)
- Type: cell-based
- reported.conditions: HEK293 cells expressing human MC-4R, AgRP83-132 and αMSH present; read-out: Average EC50 (nM) in Biological Assay
Assign a class from recorded EC50; defined classes: label 0 (below 100 nM), label 1 (100 nM to below 400 nM), label 2 (400 nM or more)

Observe how each entry below is paired with its result.
molecule: Cc1ccc(CN(CCC(=O)[O-])c2nc(C3(c4ccccc4)CCCCC3)cs2)s1.[Na+] [Example 6]
measurement.target: human MC-4R (Homo sapiens, UniProt P32245)
assigned.label: label 1

molecule: Cc1ccc(CN(CCC(=O)O)c2nc(C3(C)CCC(C(C)C)CC3)cs2)s1 (stereo not drawn) [Example 48]
measurement.target: human MC-4R (Homo sapiens, UniProt P32245)
assigned.label: label 0

molecule: Cc1ccc(CN(CCC(=O)O)c2nc(C3CCC(F)(F)CC3)cs2)s1 [Example 23]
measurement.target: human MC-4R (Homo sapiens, UniProt P32245)
assigned.label: label 1

molecule: CCc1ccc(CN(CCC(=O)O)c2nc(C3CCC(F)(F)CC3)cs2)s1 [Example 24]
measurement.target: human MC-4R (Homo sapiens, UniProt P32245)
assigned.label: label 0

molecule: CCc1ccc(CN(CCC(=O)O)c2nc(CC3CCC(C)CC3)cs2)s1 (stereo not drawn) [Example 15]
measurement.target: human MC-4R (Homo sapiens, UniProt P32245)
assigned.label: label 1

molecule: Cc1ccc(CN(CCC(=O)O)c2nc(C3(C)CCC(C)(C)CC3)cs2)s1 [Example 52]
measurement.target: human MC-4R (Homo sapiens, UniProt P32245)
assigned.label: label 1

molecule: CSc1ccc(CN(CCC(=O)O)c2nc(C3CCC(C(C)(C)C)CC3)cs2)s1 (stereo not drawn) [Example 29]
measurement.target: human MC-4R (Homo sapiens, UniProt P32245)
assigned.label: label 2

molecule: CCc1ccc(CN(CCC(=O)O)c2nc(C3CCCCC3)cs2)s1 [Example 2]
measurement.target: human MC-4R (Homo sapiens, UniProt P32245)
assigned.label: label 1

molecule: Cc1ccc(CN(CCC(=O)O)c2nc(C3CCC4(CCCC4)CC3)cs2)s1 [Example 62]
measurement.target: human MC-4R (Homo sapiens, UniProt P32245)
assigned.label: label 1

molecule: CCc1ccc(CN(CCC(=O)O)c2nc(C3CCC(C)(C)CC3)cs2)s1 [Example 54]
measurement.target: human MC-4R (Homo sapiens, UniProt P32245)
assigned.label: label 0

Given CCCC1CCC(c2csc(N(CCC(=O)O)Cc3ccc(C)s3)n2)CC1 (stereo not drawn) [Example 21] , name the class its EC50 places it in.
label 1

Which EC50 category applies to CCc1ccc(CN(CCC(=O)O)c2nc(C3CC4CCC3C4)cs2)s1 (stereo not drawn) [Example 1] here?
label 1

Which EC50 category applies to CCc1ccc(CN(CCC(=O)O)c2nc(CC3CCCC3)cs2)s1 [Example 4] here?
label 1

###

- measurement.target: human MC-4R (Homo sapiens, UniProt P32245)
- Construct: expressed in transfected cells
- protocol.details: Biological Assay: inhibition of AgRP functional interaction with MC-4R in presence of αMSH (cAMP production)
- Type: cell-based
- reported.conditions: Average EC50 (nM) in Biological Assay, HEK293 cells expressing human MC-4R, AgRP83-132 and αMSH present
Assignment: determine reported EC50 for the given compounds.

Here are 4 compounds. What values of EC50 were reported for them?
1. CC(C)C1CCC(c2csc(N(CCC(=O)O)Cc3ccc(S(C)(=O)=O)s3)n2)CC1 (stereo not shown)
2. CCc1ccc(CN(CCC(=O)O)c2nc(C3CCC(CC)CC3)cs2)s1 (stereo not shown)
3. Cc1cc(CN(CCC(=O)O)c2nc(C3CCC(C(C)C)CC3)cs2)c(C)s1 (stereo not shown)
4. CCC1CCC(c2csc(N(CCC(=O)O)Cc3ccc(C)s3)n2)CC1 (stereo not shown)

1. 524 nM
2. 389 nM
3. 276 nM
4. 386 nM
